# methodDescription: chemical genetic growth profiling, strain panel (AID 1159580);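 further: tested at 20 µM; growth read once vehicle control cultures reached saturation at 30 °C; 1 = growth at the plate median or of vehicle wells; lower values mean less growth of the strain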
# studyConditions: S. cerevisiae deletion strains, growth OD, locus YPL051W, strain arl3, active compounds read low
Hit rate of the full screen: of about 5,500 compounds, about 2,000 (36%) were called active. Another 18% or so got no clear call; they are omitted. The list shows a part of the results.
resultType: normalized growth
Enter a number only.

Below are worked cases with known answers.
Which normalized growth value is on record for CC[C@]12CCCN3CCc4c(n(c5ccccc45)[C@](O)(C(=O)OC)C1)[C@@H]32 ? 0.971

Reported normalized growth for C[C@](N)(Cc1ccc(O)cc1)C(=O)O : what is it? 1.01

Which measured normalized growth value corresponds to Nc1c(Br)cc(Br)cc1CNC1CCC(O)CC1 (stereo unspecified) ? 1.01

What value of normalized growth has been reported for the following compound? CCOC(N)=O 1

Please look up its normalized growth: CC(Cc1ccc(O)c(O)c1)(NN)C(=O)O (stereo unspecified) 0.991

What does the data say about its normalized growth? Entry: CC12CCC(CC1)C(C)(C)O2 0.973

Which normalized growth is listed for CO[C@@H]1[C@@H](O[C@@H]2O[C@H](C)[C@@H](O[C@H]3C[C@@](C)(O)[C@H](O)[C@H](C)O3)[C@H](N(C)C)[C@H]2O)[C@@H](CC=O)C[C@@H](C)[C@@H](O[C@H]2CC[C@H](N(C)C)[C@@H](C)O2)/C=C/C=C/C[C@H](C)OC(=O)C[C@H]1O ? 1.01

Record request: normalized growth value, item COc1cc(/C=C/C(=O)O)cc(OC)c1OC 1

Find the recorded normalized growth belonging to CC[C@]1(O)CC2CN(CCc3c([nH]c4ccccc34)[C@@](C(=O)OC)(c3cc4c(cc3OC)N(C=O)[C@H]3[C@@](O)(C(=O)OC)[C@H](OC(C)=O)[C@]5(CC)C=CCN6CC[C@]43[C@@H]65)C2)C1 (stereo partly specified) and report it. 1.01

Name the recorded normalized growth for COc1ccc2c(c1O)-c1c(OC)c(OC)cc3c1[C@H](C2)N(C)CC3 . 0.973

Moving on to another compound below.
For the compound COc1ccc(CN(CCN(C)C)c2ncccn2)cc1 , what normalized growth is on record? 1.02

====

Attribute: normalized growth
# methodDescription: chemical genetic growth profiling, strain panel (AID 1159580)
# studyConditions: S. cerevisiae deletion strains, growth OD, locus YJL154C, strain vps35, active compounds read low
In all, about 5,500 compounds went through this assay and about 2,000 (36%) were called active. Inconclusive results (about 18%) are left out. The list shows a part of the results.

Could you tell me which normalized growth is on file for CN1CCc2cccc3c2C1Cc1ccc(O)c(O)c1-3 (stereo unspecified) ? 1.01 (inactive)

Others:
Form field: reported normalized growth of Nc1ccc(S(=O)(=O)Nc2nccs2)cc1 1.01 (inactive)

What value of normalized growth has been recorded for this entry: CCOC(N)=O 1 (inactive)

# query: normalized growth of entry Nc1c(Br)cc(Br)cc1CNC1CCC(O)CC1 (stereo unspecified) 1.02 (inactive)

Would you kindly share the measured normalized growth for COc1ccccc1OCC(O)CN1CCN(CC(=O)Nc2c(C)cccc2C)CC1 (stereo unspecified) ? 1 (inactive)

Param item = c1cc2c(cc1[C@H]1OC[C@H]3[C@@H]1CO[C@H]3c1ccc3c(c1)OCO3)OCO2 ; retrieve measured normalized growth. 0.936 (inactive)

Endpoint output: normalized growth of NC(=O)c1cnccn1 . Value? 0.991 (inactive)

====

# methodDescription: chemical genetic growth profiling, strain panel (AID 1159580)
# studyConditions: S. cerevisiae deletion strains, growth OD, locus YLR039C, strain RIC1
About 2,000 (36%) of roughly 5,500 compounds were called active. Inconclusive results (about 18%) are left out. No stated cut-off is given here; in the data, active means normalized growth mostly below about 0.91 (no sharp cut-off); inconclusive means no clear call, values can overlap the other calls; inactive means mostly above about 0.92. Some of the results follow.
// classify into label 1 = active, label 0 = inactive

Please review the entries below; each comes with its answer.
Check the results log: what was the call for COc1cc(C)c2c(c1C=O)Oc1c(c(C)c(O)c3c1C(O)OC3=O)OC2=O (stereo not given) ? label 0

Record request — test call for C[C@@H]1C[C@@H]([C@H](O)CC2CC(=O)NC(=O)C2)C(=O)[C@@H](C)C1 label 1

I'd appreciate the recorded outcome for COc1ccc(/C=C/C(=O)O)cc1OC from this test. label 1

Others:
Which outcome did this test record for the compound N/C(=N\OC(=O)c1ccno1)c1ccc(C(F)(F)F)cc1 ? label 0

# fetch the recorded call for O=C1c2cccc3c(SCCO)ccc(c23)C(=O)N1CCc1ccccn1 here label 0

Test call for this compound, please: COC(=O)c1ccc(-c2ccccc2F)cc1 label 0

What is the recorded call for this compound in the test? CCC(CCC(C)C1CCC2C3CC=C4C[C@@H](OC(C)=O)CC[C@]4(C)C3CC[C@]12C)C(C)C (stereo not given in full) label 0

Could you please tell me the result logged for CC(C)C1=CC2=CCC3[C@](C)(CCC[C@]3(C)C(=O)O)C2CC1 (stereo not given in full) in this assay? label 1

Fill in: this test's call for CC(C)(C)OC(=O)N1CCN(Cc2ccccc2)CC1 is ___ label 0

Dear all, I need the recorded test outcome for O=c1[nH]c(-c2cc(Br)cs2)nc2ccc(Cl)cc12 , thank you. label 0

====

# methodDescription: chemical genetic growth profiling, strain panel (AID 1159580);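 further: tested at 20 µM; growth read once vehicle control cultures reached saturation at 30 °C; 1 = growth at the plate median or of vehicle wells; lower values mean less growth of the strain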
# studyConditions: S. cerevisiae deletion strains, growth OD, locus YOR316C, strain cot1, active compounds read low
The whole screen tested about 5,500 compounds, of which about 2,000 (36%) were called active. Inconclusive results (about 18%) are left out. Some of the results follow.
Listed molecules paired with reported normalized growth
Answer with a bare number; do not write a unit.

Consider the molecule shown here: C[C@@H]1CC2C3CCC4=CC(=O)C=C[C@]4(C)[C@@]3(F)[C@@H](O)C[C@]2(C)[C@@]1(O)C(=O)COP(=O)(O)O (stereo partly specified) What is its recorded normalized growth? 1

====

# methodDescription: chemical genetic growth profiling, strain panel (AID 1159580);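 further: tested at 20 µM; growth read once vehicle control cultures reached saturation at 30 °C; 1 = growth at the plate median or of vehicle wells; lower values mean less growth of the strain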
# studyConditions: S. cerevisiae deletion strains, growth OD, locus YDL101C, strain DUN1, active compounds read low
In all, about 5,500 compounds went through this assay and about 2,000 (36%) were called active. Roughly 18% stayed inconclusive and do not appear here. The list shows a part of the results.
resultType: normalized growth
The reply should be a number, written without any unit.

Dear colleague, I am looking for the recorded normalized growth of the following compound: CSc1cccc(N2C(=O)CC(c3c(Cl)cccc3Cl)CC2=O)c1 0.987

Next:
May I ask what normalized growth has been recorded for O=C(/C=C/c1ccc(O)c(O)c1)O[C@@H]1C[C@](O)(C(=O)O)C[C@@H](O)[C@H]1O ? 1.02

Name the recorded normalized growth for O=C(Nc1ccc(Cl)cc1Cl)c1cnccn1 . 0.982

Any idea what its normalized growth is? The compound is CCOC(=O)c1ccc(N)cc1 0.993

Given COc1cc(C(=O)O)cc(OC)c1O , state its recorded normalized growth. 0.982

Form field: reported normalized growth of c1ccc(CSC2=NCCCN2)cc1 1.01

So what's the measured normalized growth for this one? O=C(CCCCCCCCC(=O)c1ccccc1)c1ccccc1 1.01

Request the reported normalized growth associated with O=C(Nc1cc(C(F)(F)F)cc(C(F)(F)F)c1)C(Sc1ccccn1)c1ccccc1 (stereo not drawn) 0.987

Quick one: normalized growth of COc1cc(C(=O)O)c(O)c2c1OCO2 ? 1.01

What normalized growth value was documented for this compound, Oc1cc(O)cc(/C=C/c2ccccc2)c1 ? 0.978

Any idea what normalized growth was measured for CC1=C(/C=C/C(C)=C/C=C/C(C)=C/C=C/C=C(C)/C=C/C=C(C)/C=C/C2=C(C)CCCC2(C)C)C(C)(C)CCC1 ? 1.01

# normalized growth lookup, item CCOC(=O)NC(=S)NC12CC3CC(CC(C3)C1)C2 0.979

====

# normalized growth values compiled below
# methodDescription: chemical genetic growth profiling, strain panel (AID 1159580);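 further: tested at 20 µM; growth read once vehicle control cultures reached saturation at 30 °C; 1 = growth at the plate median or of vehicle wells; lower values mean less growth of the strain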
# studyConditions: S. cerevisiae deletion strains, growth OD, locus YLL041C, strain sdh2, active compounds read low
About 2,000 (36%) of roughly 5,500 compounds were called active. About 18% were inconclusive and are not listed. The list shows a part of the results.
Answer using only a numeral; do not append any unit.

I have this molecule here, Nc1nc2c(c(=O)[nH]1)N(C=O)C(CNc1ccc(C(=O)N[C@@H](CCC(=O)O)C(=O)O)cc1)CN2 (stereo partly specified) , and I need its recorded normalized growth. 0.976

Query (molecule): CC1=CC(=O)CC(C)(C)C1(O)/C=C/C(C)=C\C(=O)O (stereo unspecified) ; field requested: normalized growth 1.02

Please look up its normalized growth: CC1=C(/C=C/C(C)=C/C=C/C(C)=C/CO)C(C)(C)CCC1 0.99

Can you share its normalized growth? I mean this molecule: Nc1nc(N)c2nc(CNc3ccc(C(=O)NC(CCC(=O)O)C(=O)O)cc3)cnc2n1 (stereo unspecified) 0.971

Fill in: normalized growth of COc1cc(/C=C/C(=O)O)ccc1O is ___ 1.01

Now look at this one.
Find the recorded normalized growth belonging to CN(C)CCCO[C@H]1[C@@H](C(O)CO)OC2OC(C)(C)O[C@@H]21 (stereo partly specified) and report it. 0.993
